Assay: pH profile of enzymes on 1 mM ATP
Format: biochemical
Conditions: 50 mM trisodium citrate/citric acid, 5 mM CaCl2, relative to the highest value
endpoint name: Relative activity on ATP, pH 3.5
Please reply with the number alone, leaving off any unit.

[ask] Could you tell me which Relative activity on ATP, pH 3.5 is on file for CRC25084: Acid phosphatase (Class A), accession WP_088823167.1, SEQ ID NO:20 (protein, listed as Acinetobacter apis) ADSNNSFLQLNQVPDSLKIVPAPPAFNSVDFLRDKAAYDQARSLVGTARWQQAAVDADLSDANIGKSFSEAFGVEISPTNTPVTYEILRKLRTDAGGYATKTAKEHYMRMRPFVFFNSHTCTPNDEASLSKNGAYPSGHTTIGWSSALILAEIRPDRQNEILERGYQYGQSRVICGVHWQSDVDAGRITGSAIVARLHADKDFAKTLEDAKREIQKKIK ?
[reply] 0.6

Where do these numbers come from? They come from patent US20240124857A1.
